- EXPERIMENT_NOTES: Stability in neat mouse plasma (RP-HPLC)
- Assay type: in vitro ADME
- TEST_CONDITIONS: 37 °C, 0 hr, n = 3
*1 amine or outer side, *2 acyl side, *3 side chain or, on linkers, in order; H or OH if unused. Where a SMILES comes first, the peptide text is derived from it. [ ]: non-standard residue; d: D form. X1 = C=CC(C)(C)n1cc(C[C@@H](N[*:1])C(=O)[*:2])c2ccccc21; dTrp(1-Bu) = CCCCn1cc(C[C@@H](N)C(=O)O)c2ccccc21; dNMeF = CN[C@H](Cc1ccccc1)C(=O)O
Known % (± SE) of parent peptide to degradation product(s) in plasma studies of a selection of compounds
OUTCOME_MEASURE: % (± SE) of parent peptide to degradation product(s) in plasma studies (%)

- COMPOUND: "C=CC(C)(C)n1cc(C[C@@H](NC(=O)[C@H](Cc2ccccc2)NC(=O)[C@@H](Cc2c[nH]c3ccccc23)NC(=O)[C@@H](Cc2ccccc2)NC)C(=O)N[C@@H](CC(C)C)C(N)=O)c2ccccc21 [Peptide 2] (H-[dNMeF][dW]F[X1]L-NH2)"
  MEASUREMENT_UNIT: "%"
  QUANTITATIVE_READOUT: 100
- COMPOUND: "CCCCn1cc(C[C@@H](NC(=O)[C@H](Cc2ccccc2)NC(=O)[C@@H](Cc2c[nH]c3ccccc23)NC(=O)[C@@H](Cc2ccccc2)NC)C(=O)N[C@@H](CC(C)C)C(N)=O)c2ccccc21 [Peptide 16, DMePhe-DTrp-Phe-DTrp(N-butyl)-Leu-NH2] (H-[dNMeF][dW]F[dTrp(1-Bu)]L-NH2)"
  MEASUREMENT_UNIT: "%"
  QUANTITATIVE_READOUT: 100
- COMPOUND: "CCCCn1cc(C[C@@H](NC(=O)[C@H](Cc2ccccc2)NC(=O)[C@@H](Cc2c[nH]c3ccccc23)NC(=O)[C@@H](Cc2ccccc2)NC)C(=O)N[C@@H](CC(C)C)C(=O)O)c2ccccc21 [Peptide 20] (H-[dNMeF][dW]F[dTrp(1-Bu)]L-OH)"
  MEASUREMENT_UNIT: "%"
  QUANTITATIVE_READOUT: 100
- COMPOUND: "CCCCn1cc(C[C@@H](NC(=O)[C@H](Cc2ccccc2)NC(=O)[C@@H](Cc2cn(CCCC)c3ccccc23)NC(=O)[C@@H](Cc2ccccc2)NC)C(=O)N[C@@H](CC(C)C)C(N)=O)c2ccccc21 [Peptide 19] (H-[dNMeF][dTrp(1-Bu)]F[dTrp(1-Bu)]L-NH2)"
  MEASUREMENT_UNIT: "%"
  QUANTITATIVE_READOUT: 100
